Where do these numbers come from? They come from ChEMBL document CHEMBL1156297.

target: Carbonic anhydrase 12 (Homo sapiens)
Sequence (O43570 whole entry): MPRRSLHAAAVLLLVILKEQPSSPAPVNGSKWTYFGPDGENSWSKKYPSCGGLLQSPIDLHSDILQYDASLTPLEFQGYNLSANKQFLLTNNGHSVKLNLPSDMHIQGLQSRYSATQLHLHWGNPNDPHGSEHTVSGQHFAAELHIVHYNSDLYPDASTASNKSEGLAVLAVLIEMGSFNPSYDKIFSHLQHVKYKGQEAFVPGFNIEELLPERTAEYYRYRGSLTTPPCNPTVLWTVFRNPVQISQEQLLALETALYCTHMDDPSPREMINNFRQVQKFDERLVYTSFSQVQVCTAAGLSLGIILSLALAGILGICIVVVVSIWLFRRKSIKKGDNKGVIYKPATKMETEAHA
Reported Ki values are given for each entry in this list.
Write it as a number; the unit nM goes unstated.

Some molecules with recorded Ki:
compound	Ki [nM]
NS(=O)(=O)c1ccc(CNS(=O)(=O)[C@@H]2O[C@H](C(=O)O)[C@H](O)[C@H](O)[C@H]2O)cc1	8.9
COC(=O)[C@H]1O[C@@H](S(=O)(=O)NCCc2ccc(S(N)(=O)=O)cc2)[C@H](OC(C)=O)[C@@H](OC(C)=O)[C@H]1OC(C)=O	9.7

# ---- query molecule ----
**Query** What value of Ki has been recorded for this entry: `CC(=O)OC[C@H]1O[C@@H](SNCc2ccc(S(N)(=O)=O)cc2)[C@H](OC(C)=O)[C@@H](OC(C)=O)[C@H]1OC(C)=O`
**Result** 15.5

---

molecular target: Carbonic anhydrase 2 (Homo sapiens, UniProt P00918)
quantity_name: pKi
When answering, recall that pKi equals minus log10 of the concentration in mol/L, and write that number alone.

Solved cases below.
compound	reading
CC(=O)OC[C@H]1O[C@@H](SNCCc2ccc(S(N)(=O)=O)cc2)[C@H](OC(C)=O)[C@@H](OC(C)=O)[C@@H]1O[C@H]1O[C@H](COC(C)=O)[C@@H](OC(C)=O)[C@H](OC(C)=O)[C@H]1OC(C)=O	7.82
CC(=O)OC[C@H]1O[C@@H](S(=O)(=O)NCc2ccc(S(N)(=O)=O)cc2)[C@H](OC(C)=O)[C@@H](OC(C)=O)[C@H]1OC(C)=O	7.79
CC(=O)OC[C@H]1O[C@@H](SNCc2ccc(S(N)(=O)=O)cc2)[C@H](OC(C)=O)[C@@H](OC(C)=O)[C@H]1OC(C)=O	7.87

**Query** Param readout= pKi; system= Carbonic anhydrase 2 (Homo sapiens, UniProt P00918); entry= `CC(=O)OC[C@H]1O[C@@H](O[C@H]2[C@H](OC(C)=O)[C@@H](OC(C)=O)[C@H](SNCc3ccc(S(N)(=O)=O)cc3)O[C@@H]2COC(C)=O)[C@H](OC(C)=O)[C@@H](OC(C)=O)[C@H]1OC(C)=O` ; returns value.
**Result** 7.81

**Query** Fill in the recorded pKi for this molecule, with Carbonic anhydrase 2 (Homo sapiens, UniProt P00918) as test system: `CC(=O)OC[C@H]1O[C@@H](S(=O)(=O)NCCc2ccc(S(N)(=O)=O)cc2)[C@H](OC(C)=O)[C@@H](OC(C)=O)[C@@H]1OC(C)=O`
**Result** 7.81

**Query** Can you look up pKi on Carbonic anhydrase 2 (Homo sapiens, UniProt P00918) for `NS(=O)(=O)c1ccc(CNS(=O)(=O)[C@@H]2O[C@H](C(=O)O)[C@H](O)[C@H](O)[C@H]2O)cc1` ?
**Result** 8.15

---

Parameter 'readout' = pKi; parameter 'system' = UniProt:P00915.
Sequence (P00915 whole entry): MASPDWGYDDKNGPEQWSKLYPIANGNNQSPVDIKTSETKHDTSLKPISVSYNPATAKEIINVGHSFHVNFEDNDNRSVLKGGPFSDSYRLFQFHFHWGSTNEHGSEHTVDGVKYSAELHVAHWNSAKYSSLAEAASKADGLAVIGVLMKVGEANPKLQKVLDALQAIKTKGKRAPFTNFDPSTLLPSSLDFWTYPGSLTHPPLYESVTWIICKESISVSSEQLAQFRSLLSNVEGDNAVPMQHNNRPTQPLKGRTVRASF
Formally, pKi is defined as -log10 of the concentration c, with c in mol/L.

Illustrative cases are given below, each with its answer.
compound	target_desc	pKi
NS(=O)(=O)c1ccc(CCNS(=O)(=O)[C@@H]2O[C@H](CO)[C@@H](O[C@H]3O[C@H](CO)[C@@H](O)[C@H](O)[C@H]3O)[C@H](O)[C@H]2O)cc1	UniProt:P00915	6.99
COC(=O)[C@H]1O[C@@H](S(=O)(=O)NCCc2ccc(S(N)(=O)=O)cc2)[C@H](OC(C)=O)[C@@H](OC(C)=O)[C@H]1OC(C)=O	UniProt:P00915	5.49
NS(=O)(=O)c1ccc(CNS(=O)(=O)[C@@H]2O[C@H](CO)[C@@H](O[C@@H]3O[C@H](CO)[C@H](O)[C@H](O)[C@H]3O)[C@H](O)[C@H]2O)cc1	UniProt:P00915	6.97

**Query** Need pKi of `NS(=O)(=O)c1ccc(CCNS(=O)(=O)[C@@H]2O[C@H](CO)[C@@H](O[C@@H]3O[C@H](CO)[C@H](O)[C@H](O)[C@H]3O)[C@H](O)[C@H]2O)cc1` , thanks.
**Result** 7.11

**Query** Sample `CC(=O)OC[C@H]1O[C@@H](S(=O)(=O)NCCc2ccc(S(N)(=O)=O)cc2)[C@H](OC(C)=O)[C@@H](OC(C)=O)[C@@H]1O[C@H]1O[C@H](COC(C)=O)[C@@H](OC(C)=O)[C@H](OC(C)=O)[C@H]1OC(C)=O` — what was its pKi?
**Result** 5.25

**Query** So what's the measured pKi for this one? `NS(=O)(=O)c1ccc(CCNS(=O)(=O)[C@@H]2O[C@H](CO)[C@H](O)[C@H](O)[C@H]2O)cc1`
**Result** 7.09

**Query** I am curious: what pKi value has been reported for `CC(=O)OC[C@H]1O[C@@H](O[C@H]2[C@H](OC(C)=O)[C@@H](OC(C)=O)[C@H](SNCCc3ccc(S(N)(=O)=O)cc3)O[C@@H]2COC(C)=O)[C@H](OC(C)=O)[C@@H](OC(C)=O)[C@H]1OC(C)=O` ?
**Result** 5.09

**Query** Name the recorded pKi for `NS(=O)(=O)c1ccc(CNS(=O)(=O)[C@@H]2O[C@H](CO)[C@H](O)[C@H](O)[C@H]2O)cc1` .
**Result** 7.06

**Query** What pKi value was documented for this compound, `CC(=O)OC[C@H]1O[C@@H](SNCCc2ccc(S(N)(=O)=O)cc2)[C@H](OC(C)=O)[C@@H](OC(C)=O)[C@H]1OC(C)=O` ?
**Result** 5.39

**Query** Name the reported pKi value associated with the compound `CC(=O)OC[C@H]1O[C@@H](O[C@H]2[C@H](OC(C)=O)[C@@H](OC(C)=O)[C@H](S(=O)(=O)NCCc3ccc(S(N)(=O)=O)cc3)O[C@@H]2COC(C)=O)[C@H](OC(C)=O)[C@@H](OC(C)=O)[C@H]1OC(C)=O`
**Result** 5.46

**Query** Query: pKi; subject: `NS(=O)(=O)c1ccc(CNS(=O)(=O)[C@@H]2O[C@H](CO)[C@@H](O[C@H]3O[C@H](CO)[C@@H](O)[C@H](O)[C@H]3O)[C@H](O)[C@H]2O)cc1`
**Result** 7.00

**Query** Name the recorded pKi for `CC(=O)OC[C@H]1O[C@@H](SNCc2ccc(S(N)(=O)=O)cc2)[C@H](OC(C)=O)[C@@H](OC(C)=O)[C@@H]1O[C@H]1O[C@H](COC(C)=O)[C@@H](OC(C)=O)[C@H](OC(C)=O)[C@H]1OC(C)=O` .
**Result** 5.46

**Query** Name the recorded pKi for `NS(=O)(=O)c1ccc(CCNS(=O)(=O)[C@@H]2O[C@H](CO)[C@@H](O)[C@H](O)[C@H]2O)cc1` .
**Result** 7.06

**Query** Given the entry `CC(=O)OC[C@H]1O[C@@H](S(=O)(=O)NCc2ccc(S(N)(=O)=O)cc2)[C@H](OC(C)=O)[C@@H](OC(C)=O)[C@@H]1O[C@H]1O[C@H](COC(C)=O)[C@@H](OC(C)=O)[C@H](OC(C)=O)[C@H]1OC(C)=O` , report its measured pKi.
**Result** 5.69

**Query** Any idea what its pKi is? The compound is `CC(=O)OC[C@H]1O[C@@H](S(=O)(=O)NCCc2ccc(S(N)(=O)=O)cc2)[C@H](OC(C)=O)[C@@H](OC(C)=O)[C@@H]1OC(C)=O`
**Result** 7.05

**Query** // returns reported pKi for input `NS(=O)(=O)c1ccc(CNS(=O)(=O)[C@@H]2O[C@H](C(=O)O)[C@H](O)[C@H](O)[C@H]2O)cc1`
**Result** 7.09
